The values you see were collected from patent US20240018502.

# assay.system: T1, quenched fluorescence peptidic substrate containing SKGR/SL (P4-P2' of the PAR-2 activation cleavage site, Ser 33 to Leu 38)
# T1 chain: SKGRSL
metric.name: SKGR/SL kcat/Km (M⁻¹ s⁻¹)

[[record]]
protein = "Q38H/I41S/D60bT/F60eS/Y60gW/F97D/ins97aV/T98P/F99L/C122S/G151H/Q175L/Q192E (protein) VVGGTDADEGEWPWQVSLHALGHGHSCGASLISPNWLVSAAHCYIDTRGSRWSDPTQWTAFLGLHDQSQRSAPGVQERRLKRIISHPFFNDDVPLDYDIALLELEKPAEYSSMVRPISLPDASHVFPAGKAIWVTGWGHTQYGGTHALILQKGEIRVINQTTCENLLPQLITPRMMCVGFLSGGVDSCEGDSGGPLSSVEADGRIFQAGVVSWGDGCAQRNKPGVYTRLPLFRDWIKENTGV"
metric_name = "SKGR/SL kcat/Km"
value_unit = "M⁻¹ s⁻¹"
value_prefix = "="
test_value = 959

[[record]]
protein = "Q38H/I41A/D60bV/F60eR/Y60gW/D96P/F97W/ins97aN/T98G/F99L/C122S/G151N/Q175L/Q192E (protein) VVGGTDADEGEWPWQVSLHALGHGHACGASLISPNWLVSAAHCYIDVRGRRWSDPTQWTAFLGLHDQSQRSAPGVQERRLKRIISHPFFNPWNGLDYDIALLELEKPAEYSSMVRPISLPDASHVFPAGKAIWVTGWGHTQYGGTNALILQKGEIRVINQTTCENLLPQLITPRMMCVGFLSGGVDSCEGDSGGPLSSVEADGRIFQAGVVSWGDGCAQRNKPGVYTRLPLFRDWIKENTGV"
metric_name = "SKGR/SL kcat/Km"
value_unit = "M⁻¹ s⁻¹"
value_prefix = "="
test_value = 1620

[[record]]
protein = "Q38H/I41A/D60bV/F60eR/Y60gW/D96I/F97N/T98G/F99L/C122S/G151N/Q175L/Q192D (protein) VVGGTDADEGEWPWQVSLHALGHGHACGASLISPNWLVSAAHCYIDVRGRRWSDPTQWTAFLGLHDQSQRSAPGVQERRLKRIISHPFFNINGLDYDIALLELEKPAEYSSMVRPISLPDASHVFPAGKAIWVTGWGHTQYGGTNALILQKGEIRVINQTTCENLLPQLITPRMMCVGFLSGGVDSCDGDSGGPLSSVEADGRIFQAGVVSWGDGCAQRNKPGVYTRLPLFRDWIKENTGV"
metric_name = "SKGR/SL kcat/Km"
value_unit = "M⁻¹ s⁻¹"
value_prefix = "="
test_value = 3560

[[record]]
protein = "Q38H/I41S/D60bT/F60eS/Y60gW/D96K/F97D/ins97aA/T98P/F99L/C122S/G151H/Q175L/Q192D (protein) VVGGTDADEGEWPWQVSLHALGHGHSCGASLISPNWLVSAAHCYIDTRGSRWSDPTQWTAFLGLHDQSQRSAPGVQERRLKRIISHPFFNKDAPLDYDIALLELEKPAEYSSMVRPISLPDASHVFPAGKAIWVTGWGHTQYGGTHALILQKGEIRVINQTTCENLLPQLITPRMMCVGFLSGGVDSCDGDSGGPLSSVEADGRIFQAGVVSWGDGCAQRNKPGVYTRLPLFRDWIKENTGV"
metric_name = "SKGR/SL kcat/Km"
value_unit = "M⁻¹ s⁻¹"
value_prefix = "="
test_value = 4030

[[record]]
protein = "Q38H/I41S/D60bT/F60eS/Y60gW/D96L/F97D/ins97aG/T98N/F99L/C122S/G151H/Q175L/Q192E (protein) VVGGTDADEGEWPWQVSLHALGHGHSCGASLISPNWLVSAAHCYIDTRGSRWSDPTQWTAFLGLHDQSQRSAPGVQERRLKRIISHPFFNLDGNLDYDIALLELEKPAEYSSMVRPISLPDASHVFPAGKAIWVTGWGHTQYGGTHALILQKGEIRVINQTTCENLLPQLITPRMMCVGFLSGGVDSCEGDSGGPLSSVEADGRIFQAGVVSWGDGCAQRNKPGVYTRLPLFRDWIKENTGV"
metric_name = "SKGR/SL kcat/Km"
value_unit = "M⁻¹ s⁻¹"
value_prefix = "="
test_value = 1300

[[record]]
protein = "Q38H/I41A/D60bV/F60eR/Y60gW/F97T/ins97aE/T98G/F99L/C122S/G151H/Q175L/Q192D (protein) VVGGTDADEGEWPWQVSLHALGHGHACGASLISPNWLVSAAHCYIDVRGRRWSDPTQWTAFLGLHDQSQRSAPGVQERRLKRIISHPFFNDTEGLDYDIALLELEKPAEYSSMVRPISLPDASHVFPAGKAIWVTGWGHTQYGGTHALILQKGEIRVINQTTCENLLPQLITPRMMCVGFLSGGVDSCDGDSGGPLSSVEADGRIFQAGVVSWGDGCAQRNKPGVYTRLPLFRDWIKENTGV"
metric_name = "SKGR/SL kcat/Km"
value_unit = "M⁻¹ s⁻¹"
value_prefix = "="
test_value = 1360

[[record]]
protein = "Wild-type MTSP-1 protease domain with C122S (protein) VVGGTDADEGEWPWQVSLHALGQGHICGASLISPNWLVSAAHCYIDDRGFRYSDPTQWTAFLGLHDQSQRSAPGVQERRLKRIISHPFFNDFTFDYDIALLELEKPAEYSSMVRPISLPDASHVFPAGKAIWVTGWGHTQYGGTGALILQKGEIRVINQTTCENLLPQQITPRMMCVGFLSGGVDSCQGDSGGPLSSVEADGRIFQAGVVSWGDGCAQRNKPGVYTRLPLFRDWIKENTGV"
metric_name = "SKGR/SL kcat/Km"
value_unit = "M⁻¹ s⁻¹"
value_prefix = "="
test_value = 200000

[[record]]
protein = "I41R/F97T/Ins97aE/T98G/F99L/C122S/G151N/Q175L/Q192E (protein) VVGGTDADEGEWPWQVSLHALGQGHRCGASLISPNWLVSAAHCYIDDRGFRYSDPTQWTAFLGLHDQSQRSAPGVQERRLKRIISHPFFNDTEGLDYDIALLELEKPAEYSSMVRPISLPDASHVFPAGKAIWVTGWGHTQYGGTNALILQKGEIRVINQTTCENLLPQLITPRMMCVGFLSGGVDSCEGDSGGPLSSVEADGRIFQAGVVSWGDGCAQRNKPGVYTRLPLFRDWIKENTGV"
metric_name = "SKGR/SL kcat/Km"
value_unit = "M⁻¹ s⁻¹"
value_prefix = "<"
test_value = 100

[[record]]
protein = "Q38H/I41S/D60bT/F60eS/Y60gW/D96K/F97D/ins97aA/T98P/F99L/C122S/G151N/Q175L/Q192D (protein) VVGGTDADEGEWPWQVSLHALGHGHSCGASLISPNWLVSAAHCYIDTRGSRWSDPTQWTAFLGLHDQSQRSAPGVQERRLKRIISHPFFNKDAPLDYDIALLELEKPAEYSSMVRPISLPDASHVFPAGKAIWVTGWGHTQYGGTNALILQKGEIRVINQTTCENLLPQLITPRMMCVGFLSGGVDSCDGDSGGPLSSVEADGRIFQAGVVSWGDGCAQRNKPGVYTRLPLFRDWIKENTGV"
metric_name = "SKGR/SL kcat/Km"
value_unit = "M⁻¹ s⁻¹"
value_prefix = "="
test_value = 2060

[[record]]
protein = "Q38H/I41A/D60bV/F60eR/Y60gW/D96I/F97Y/ins97aN/T98G/F99L/C122S/G151N/Q175L/Q192D (protein) VVGGTDADEGEWPWQVSLHALGHGHACGASLISPNWLVSAAHCYIDVRGRRWSDPTQWTAFLGLHDQSQRSAPGVQERRLKRIISHPFFNIYNGLDYDIALLELEKPAEYSSMVRPISLPDASHVFPAGKAIWVTGWGHTQYGGTNALILQKGEIRVINQTTCENLLPQLITPRMMCVGFLSGGVDSCDGDSGGPLSSVEADGRIFQAGVVSWGDGCAQRNKPGVYTRLPLFRDWIKENTGV"
metric_name = "SKGR/SL kcat/Km"
value_unit = "M⁻¹ s⁻¹"
value_prefix = "="
test_value = 2320

